test_method_notes: Apparent permeability of the compound in human Caco2 cells from apical to basolateral side at 2 mM after 1 hr by HPLC analysis
assay_conditions: Caco-2
assay_readout: Papp A→B at 1 h, 2000 µM (×10⁻⁶ cm/s)

(a) CC(C)c1cccc(C(C)C)c1OC(=O)C[C@H](NC(=S)[C@H](C)N)C(=O)O
(b) COc1ccc2cc(CC/C(C)=N/OCCOC(=O)C[C@H](NC(=S)[C@H](C)N)C(=O)O)ccc2c1
Request: Of a and b , which carries the smaller reported Papp A→B at 1 h, 2000 µM figure? Kindly state the label of the option you pick.
Response: a

---

target_or_system: PepT1 (Homo sapiens)
Sequence (P46059 whole entry): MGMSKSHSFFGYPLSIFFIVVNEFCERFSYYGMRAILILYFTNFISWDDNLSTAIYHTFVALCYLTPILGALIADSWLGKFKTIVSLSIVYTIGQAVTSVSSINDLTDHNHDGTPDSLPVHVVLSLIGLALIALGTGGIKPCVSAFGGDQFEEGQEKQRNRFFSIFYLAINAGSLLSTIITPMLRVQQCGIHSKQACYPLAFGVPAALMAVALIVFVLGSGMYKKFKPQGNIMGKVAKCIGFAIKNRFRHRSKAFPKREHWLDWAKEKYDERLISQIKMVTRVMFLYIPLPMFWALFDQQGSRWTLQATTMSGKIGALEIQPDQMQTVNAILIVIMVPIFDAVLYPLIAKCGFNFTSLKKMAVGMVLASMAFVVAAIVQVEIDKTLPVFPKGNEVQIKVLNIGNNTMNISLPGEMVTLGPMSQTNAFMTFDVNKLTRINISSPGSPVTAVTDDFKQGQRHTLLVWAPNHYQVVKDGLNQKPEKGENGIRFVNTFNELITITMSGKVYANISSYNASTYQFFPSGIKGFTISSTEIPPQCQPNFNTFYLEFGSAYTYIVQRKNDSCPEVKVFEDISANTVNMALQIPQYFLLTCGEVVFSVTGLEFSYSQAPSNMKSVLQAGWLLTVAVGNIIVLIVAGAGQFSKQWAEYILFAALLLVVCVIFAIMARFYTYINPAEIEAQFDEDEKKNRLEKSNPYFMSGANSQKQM
test_method_notes: Substrate activity at PepT1 in human Caco2 cells assessed as apparent permeability form apical to basolateral side at 2 mM in presence of Gly-Gln after 1 hr by HPLC analysis
assay_conditions: Caco-2, with Gly-Gln
assay_readout: Papp A→B at 1 h, 2000 µM (nm/s)

Worked cases, Papp A→B at 1 h, 2000 µM given:
Request: Fill blank: measured Papp A→B at 1 h, 2000 µM of the molecule `C[C@H](N)C(=S)N[C@@H](COC(=O)CC1(CN)CCCCC1)C(=O)O` is ____.
Response: 4

Request: Can you share its Papp A→B at 1 h, 2000 µM? I mean this molecule: `CC(C)Cc1ccc([C@@H](C)C(=O)OC[C@H](NC(=S)[C@H](C)N)C(=O)O)cc1`
Response: 21

(I) C[C@H](NC(=O)[C@@H](N)Cc1ccccc1)C(N)=S
(II) CC(C)c1cccc(C(C)C)c1OC(=O)C[C@H](NC(=S)[C@H](C)N)C(=O)O
(III) COc1ccc2cc(CC/C(C)=N/OCCOC(=O)C[C@H](NC(=S)[C@H](C)N)C(=O)O)ccc2c1
Request: List the 3 entries from lowest Papp A→B at 1 h, 2000 µM to highest Papp A→B at 1 h, 2000 µM value. Arrange the labels as the request states and list them.
Response: II, I, III
(II: 5 nm/s, I: 19 nm/s, III: 44 nm/s)
